# Test system: SW-620 colon
# TEST_NAME: NCI tumour cell line growth inhibition, 48 h
So I've got a bunch of molecules here, and I need their TGI values.

[Q] State the recorded TGI for this entry: C=C1C(=O)O[C@H]2[C@H]1CC/C(COC(=O)c1ccccc1)=C\CC[C@@]1(C)O[C@@H]21
[A] 1.75 µM

[Q] Next molecule up: COc1cc(OC)c(C(=O)/C=C/c2cccc(OC(C)=O)c2)cc1CC=C(C)C
[A] 18.5 µM

[Q] Next molecule up: Cc1c2c(cc3c(=O)ccn(CCN(C)C)c13)c(=O)ccn2CCN(C)C
[A] 20.5 µM

[Q] Next molecule up: CCCCCCC(C)OC(=O)/C=C(\CC(=O)OC(C)CCCCCC)C(=O)OC(C)CCCCCC (stereo unspecified)
[A] > 100 µM

[Q] Next molecule up: CC/C=C/c1cc2cc[nH]c2c2c1C(C)C[C@@H]2C (stereo partly specified)
[A] 94.8 µM

[Q] Next molecule up: NC(CC1=CCC=CC1)C(=O)O (stereo unspecified)
[A] > 100 µM

[Q] Next molecule up: O=C(Nc1ccccc1)Nc1cccc(Oc2nnc(Cl)c3ccccc23)c1
[A] > 25 µM

[Q] Next molecule up: CCNCCCn1c2c(c3ccc([N+](=O)[O-])cc3c1=O)C(=O)c1cc(OC)cnc1-2
[A] 3.57 µM

[Q] Next molecule up: CC1(C)CCC(=O)NC1CC(=O)CC1NC(=O)CCC1(C)C (stereo unspecified)
[A] > 100 µM

[Q] Next molecule up: NS(=O)(=O)c1ccc(NC(=O)c2cccc3cc4ccccc4nc23)cc1
[A] > 100 µM

[Q] Next molecule up: COc1ccc(/C=C/NC=O)cc1
[A] > 100 µM

[Q] Next molecule up: COc1cc(Nc2nc3ccc(C(F)(F)F)cc3nc2-c2ccccc2)cc(OC)c1OC
[A] > 100 µM

[Q] Next molecule up: CC(C)CN(CC(C)C)C(=O)C1CCCC[C@@H]1C(=O)O (stereo partly specified)
[A] > 100 µM

[Q] Next molecule up: COC(=O)c1ccccc1C1CN=NC12Cc1cccc(C)c1C2=O (stereo unspecified)
[A] > 100 µM

[Q] Next molecule up: OCC(O)C(O)C(O)/C=N/Nc1nc2ccccc2nc1-c1ccccc1 (stereo unspecified)
[A] > 100 µM

[Q] Next molecule up: COc1ccc2cc(C(=O)NCCCNC(=O)c3ccc4cc(OC)ccc4c3)ccc2c1
[A] > 100 µM

[Q] Next molecule up: CC(=O)Oc1ccc(/C=C/C(=O)O[C@H]2CCCC[C@@H]2OC(=O)/C=C/c2ccc(OC(C)=O)c(OC(C)=O)c2)cc1OC(C)=O
[A] 10.6 µM

[Q] Next molecule up: CSc1ncnc2c1CCN2
[A] > 100 µM

[Q] Next molecule up: C/C(=N\N=C(N)N)C(CN(C)C)C(c1ccccc1)c1c(O)c2ccccc2oc1=O (stereo unspecified)
[A] > 100 µM

[Q] Next molecule up: COc1cc(/C=C(\OC(C)=O)c2ccc3c(c2)OCO3)cc(OC)c1OC
[A] > 100 µM

[Q] Next molecule up: c1ccc2c(c1)CC1COc3ccccc3C1O2 (stereo unspecified)
[A] > 100 µM

[Q] Next molecule up: COc1cc2c(cn1)[nH]c1ccccc12
[A] > 100 µM

[Q] Next molecule up: CCOC(=O)CSc1[nH]c(NC(=S)Nc2ccccc2)c(C(N)=O)c1C(N)=O
[A] > 10 µM

[Q] Next molecule up: O=C1c2ccccc2C(=O)c2c(O)ccc(O)c21
[A] > 100 µM

[Q] Next molecule up: O=C(c1ccc(Cl)cc1)c1ccc(OCCSCCCCCCCCCCSCCOc2ccc(C(=O)c3ccc(Cl)cc3)cc2)cc1
[A] > 100 µM

[Q] Next molecule up: COc1ccc(/C=N/NC(=O)c2cnc3[nH]c(=O)n(C)c(=O)c3c2)cc1
[A] > 100 µM

[Q] Next molecule up: C=CCn1cc(C(=O)NC(=O)NCCCCCOC(=O)CCCCCCCCCCC(=O)OCCCCCNC(=O)NC(=O)c2cn(CC=C)c(=O)n(C)c2=O)c(=O)n(C)c1=O
[A] > 100 µM

[Q] Next molecule up: Cc1nnc(-n2c(O)cc(=O)n(-c3ccccc3)c2=S)nc1/C=C/c1ccc(N(C)C)cc1
[A] > 52.9 µM

[Q] Next molecule up: NC(=O)c1nnsc1NC=O
[A] > 100 µM

[Q] Next molecule up: N=c1c2c(=S)n(-c3ccccc3)c(=S)n(-c3ccccc3)c2nc(SCCN2CCOCC2)n1-c1ccccc1
[A] 3.96 µM

[Q] Next molecule up: COC(=O)c1cc(C(=CCC[C@H]2CC[C@@]3(C)C(CCC4C3CC[C@@]3(C)C4CC[C@@H]3C(C)CCCC(C)C)C2)c2cc(Cl)c(OC(=O)c3ccccc3)c(C(=O)OC)c2)cc(Cl)c1OC(=O)c1ccccc1 (stereo partly specified)
[A] > 10 µM

[Q] Next molecule up: CC(C)(C)[C@H]1CCC2(OCCO2)[C@](O)(CCCO)C1
[A] > 100 µM

[Q] Next molecule up: NNC(=O)/C(NC(=O)c1ccccc1)=C(\N)c1ccc(Cl)cc1
[A] > 100 µM

[Q] Next molecule up: CC(=O)/C=C/c1ccc(C)cc1
[A] > 100 µM

[Q] Next molecule up: CC(NC(C#N)CC12CC3CC(CC(C3)C1)C2)c1ccccc1 (stereo unspecified)
[A] > 100 µM

[Q] Next molecule up: CC(=O)N1c2ccccc2C(C)C1c1[nH]c2ccccc2c1C (stereo unspecified)
[A] > 100 µM

[Q] Next molecule up: C1=Nc2ccccc2C=Nc2ccccc2C=Nc2ccccc2C=Nc2ccccc21.[Cl-].[Pt+2]
[A] > 100 µM

[Q] Next molecule up: S=C(Nc1ccccn1)Nc1ccccc1Cl
[A] > 100 µM

[Q] Next molecule up: Cc1nc(C(N)=S)sc1C(=O)C/C(=N/N)C(=O)Nc1ccc(Cl)cc1
[A] > 100 µM

[Q] Next molecule up: CC1C(=O)O[C@H]2C1CC[C@@]1(C)[C@H](O)CC[C@@]13C[C@]2(O)OO3 (stereo partly specified)
[A] > 100 µM

[Q] Next molecule up: O=[N+]([O-])c1ccc(Cl)cc1N/N=C/c1cccc2cccnc12
[A] > 100 µM

* * *

# Tested on: HOP-62 NSCLC
# TEST_NAME: NCI tumour cell line growth inhibition, 48 h
OUTCOME_MEASURE: TGI

[Q] State the recorded TGI for this entry: COc1cc(/C=C(\OC(C)=O)c2ccc3c(c2)OCO3)cc(OC)c1OC
[A] 47.7 µM

[Q] Next molecule up: Cc1nc(C(N)=S)sc1C(=O)C/C(=N/N)C(=O)Nc1ccc(Cl)cc1
[A] > 100 µM

[Q] Next molecule up: Cc1ccc(S(=O)(=O)NC(=O)NC(Cc2ccc(O)c(O)c2)C(=O)O)cc1 (configuration not stated)
[A] > 100 µM

[Q] Next molecule up: Cc1cc2cn3c4cccnc4[nH]c(=O)c3c2cc1C
[A] 2.85 µM

[Q] Next molecule up: COc1ccccc1/C=C/C(=O)/C=C/c1ccccc1OC
[A] 6.92 µM

[Q] Next molecule up: NC1CCC(N[C@@H]2C[C@H]2c2ccccc2)CC1 (some centres not stated)
[A] > 100 µM

[Q] Next molecule up: C=C1C(=O)O[C@@H]2[C@H](O)[C@@H](C)[C@@H]3C=CC(=O)[C@@]3(C)[C@H](OC(=O)C=C(C)C)[C@H]12
[A] 11.4 µM

[Q] Next molecule up: CSCCC(NC(=O)OCc1ccccc1)NC(=O)OCc1ccccc1
[A] > 100 µM

[Q] Next molecule up: COc1ccccc1-c1cc(=O)c2ccc(OC)c(OC)c2o1
[A] > 100 µM

[Q] Next molecule up: CC1CCc2sc3[nH]c(=S)n(-c4ccccc4)c(=O)c3c2C1 (configuration not stated)
[A] > 100 µM

[Q] Next molecule up: O=C1CS/C(=N\S(=O)(=O)c2ccc(N3N=C4c5ccccc5CC4C3c3ccc(Cl)cc3)cc2)N1c1ccccc1 (configuration not stated)
[A] > 100 µM

[Q] Next molecule up: c1ccc(COC2(OCc3ccccc3)CC3OC2C2NN=NC32)cc1 (configuration not stated)
[A] > 100 µM

[Q] Next molecule up: COc1cc(C2c3cc4c(cc3[C@@H](Nc3cccc([N+](=O)[O-])c3)C3COC(=O)[C@H]23)OCO4)cc(OC)c1O (some centres not stated)
[A] 3.31 µM

[Q] Next molecule up: Cc1nc2ccccc2n1Cc1nnc(N)o1
[A] > 100 µM

[Q] Next molecule up: Nn1c(Cc2ccccc2)n[nH]c1=O
[A] > 100 µM

[Q] Next molecule up: C=CCCCCCCCCCOC1C=CC(OC(C)=O)C(COC(C)=O)O1 (configuration not stated)
[A] > 100 µM

[Q] Next molecule up: Cc1cc(N(CCCl)CCCl)ccc1/C=N/NC(=O)Cc1cc(=O)oc2cc(O)ccc12
[A] 39.7 µM

[Q] Next molecule up: CC(C)(C)[C@H]1CCC2(OCCO2)[C@](O)(CCCO)C1
[A] > 100 µM

[Q] Next molecule up: C#CCn1c(=O)c(Cl)cn(/C(=C/C(=O)OCC)C(=O)OCC)c1=O
[A] 37.8 µM

[Q] Next molecule up: Cc1nnc(-n2c(O)cc(=O)n(-c3ccccc3)c2=S)nc1/C=C/c1ccc(N(C)C)cc1
[A] > 100 µM

[Q] Next molecule up: COc1ccc(N(C)c2c3ccccc3nc3[nH]c4ccccc4c23)cc1
[A] 1.79 µM

[Q] Next molecule up: CCCCCCC(C)OC(=O)/C=C(\CC(=O)OC(C)CCCCCC)C(=O)OC(C)CCCCCC (configuration not stated)
[A] > 100 µM

[Q] Next molecule up: COc1ccc(-c2cc(=O)c3c(OC)c(OC)c(OC)c(OC)c3o2)c(OC)c1
[A] 70.6 µM

[Q] Next molecule up: COc1ccc(-c2csc(NC(=O)c3cc(O)c(O)c(O)c3)n2)cc1
[A] > 33.3 µM

[Q] Next molecule up: N#C/C(=C\c1ccc(C(O)P(=O)(O)O)cc1)C(N)=O (configuration not stated)
[A] > 100 µM

[Q] Next molecule up: CC12CCC(C(Nc3ccccn3)C1=O)C2(C)C (configuration not stated)
[A] > 100 µM

[Q] Next molecule up: OCc1ccc(N(CCN2CCCC2)Cc2ccc(F)cc2)cc1Cl
[A] 42.1 µM

[Q] Next molecule up: COc1ccc(Oc2nc(C#CC(C)(C)O)nc(Oc3ccc(OC)cc3)n2)cc1
[A] 62.1 µM

[Q] Next molecule up: O=C1ON=C2C3CC4CC12CC1(C3)C(=O)ON=C41
[A] > 100 µM

[Q] Next molecule up: CSc1nc2c(=O)n(-c3ccccc3)c(=S)n(-c3ccccc3)c2s1
[A] > 100 µM

[Q] Next molecule up: CCC(C(=O)c1ccccc1)C(CCCC(=O)Nc1c(C)cccc1C)N=O (configuration not stated)
[A] > 100 µM

[Q] Next molecule up: COc1ccc(-c2cc(-c3cc(F)c(Cl)cc3Cl)on2)cc1OC
[A] > 100 µM

[Q] Next molecule up: CCOC(=O)Cn1c(=O)c2cc(-c3ccccc3)cc3c(Cl)nc4c(OC)c(OC)cc1c4c32
[A] > 100 µM

[Q] Next molecule up: C=C1C(=O)O[C@H]2[C@H]1CC/C(Cn1cc(-c3cc(C)c(C)cc3C)nn1)=C\CC[C@@]1(C)O[C@@H]21
[A] 3.97 µM

[Q] Next molecule up: CC(=O)OCC1OC(O/C=C(\CN=[N+]=[N-])C(C)=O)C(OC(C)=O)C(OC(C)=O)C1OC(C)=O (configuration not stated)
[A] 70.7 µM

[Q] Next molecule up: CC(C)C1CC[C@H](C)C[C@@H]1OC(=O)C(C(=O)O[C@H]1C[C@@H](C)CCC1C(C)C)C(O)[C@@H]1OC(C)(C)O[C@H]1C1COC(C)(C)O1 (some centres not stated)
[A] 37.5 µM

[Q] Next molecule up: CC1(C)CC2(C)CC1CC2NC(=O)CCN1CCOCC1 (configuration not stated)
[A] > 100 µM

[Q] Next molecule up: CCOC(=O)CSc1[nH]c(NC(=S)Nc2ccccc2)c(C(N)=O)c1C(N)=O
[A] > 10 µM

[Q] Next molecule up: NC(=O)c1ccc2nc3c(n2c1)C(=O)C(=O)c1ccccc1-3
[A] 2.8 µM

[Q] Next molecule up: CC1(C)CCC(=O)NC1CC(=O)CC1NC(=O)CCC1(C)C (configuration not stated)
[A] > 100 µM

[Q] Next molecule up: c1ccc2c(c1)CC1COc3ccccc3C1O2 (configuration not stated)
[A] > 100 µM

[Q] Next molecule up: CCN(CC)CCCOc1cc2c(cc1OC)C(=O)N1CCC[C@H]1C=N2
[A] 92.1 µM
